Target: T1, PACAP-R3 (human, UniProt P41587 24-438)
T1 sequence (looked up): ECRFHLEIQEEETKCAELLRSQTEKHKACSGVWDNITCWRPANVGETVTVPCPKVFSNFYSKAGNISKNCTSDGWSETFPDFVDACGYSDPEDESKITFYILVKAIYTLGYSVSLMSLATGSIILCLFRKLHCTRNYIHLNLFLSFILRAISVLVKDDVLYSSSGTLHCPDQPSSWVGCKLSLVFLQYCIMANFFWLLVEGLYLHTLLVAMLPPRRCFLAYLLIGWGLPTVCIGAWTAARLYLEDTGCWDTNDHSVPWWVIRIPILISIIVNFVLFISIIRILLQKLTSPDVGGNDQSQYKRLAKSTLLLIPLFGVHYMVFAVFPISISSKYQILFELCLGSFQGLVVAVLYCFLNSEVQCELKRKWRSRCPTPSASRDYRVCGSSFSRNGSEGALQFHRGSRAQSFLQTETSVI
Assay: cell-based or functional assay
No end group written: not given here.

| BINDER | UNIT SYMBOL | R3 EC50, nM (cAMP SPA) |
| --- | --- | --- |
| HSDGIFTDSYSRYRKQMAVKKYLAKVL-NH2 [PAC25] | nM | 0.04 |
| HSDGIFTDSYSRYRKQMAVEKYLAAVL-NH2 [PAC20] | nM | 0.7 |
| HSDAVFTDNYTRLRKQMASKKYLNSIPNRI [rR3P183] | nM | 5.4 |
| HSDGIFTDSYSRYRKQMAVKKYKAAVL-NH2 [PAC23] | nM | 13 |
| HSDAVFTDNYTRLRKQMARKKYLNSIKNRI [rR3P177] | nM | 1.6 |
| HSDAVFTDNYTRLRKQMAAKKYLNSIKNKP [R3P165] | nM | 0.5 |
| HSDAVFTDNYTRLRKQMAAKKYLNSIKNKY [R3P171] | nM | 0.4 |
